ASSAY_PROTOCOL: chemical genetic growth profiling, strain panel (AID 1159580);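 further: tested at 20 µM; growth read once vehicle control cultures reached saturation at 30 °C; 1 = growth at the plate median or of vehicle wells; lower values mean less growth of the strain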
RUN_CONDITIONS: S. cerevisiae deletion strains, growth OD, locus YLR268W, strain sec22, stronger effect = lower value
About 2,000 (36%) of roughly 5,500 compounds were called active. Another 18% or so got no clear call; they are omitted. The list shows a part of the results.
MEASURED_PARAMETER: normalized growth

Recorded normalized growth, per entry:
[[record]]
compound = "CN1CCN(C2=Nc3cc(Cl)ccc3Nc3ccccc32)CC1"
val = "1.01 (inactive)"

[[record]]
compound = "Cc1ccc(O)c(C(CCN(C(C)C)C(C)C)c2ccccc2)c1 (stereo not drawn)"
val = "0.984 (inactive)"

[[record]]
compound = "O=C(/C=C/c1ccccc1)c1c(O)cc(O)cc1O"
val = "0.989 (inactive)"

[[record]]
compound = "C/C(=C\\CO)CC[C@H](C)CCC[C@H](C)CCCC(C)C"
val = "1.15 [resistant] (active)"

[[record]]
compound = "CNC(C)(C)Cc1ccccc1"
val = "1 (inactive)"

[[record]]
compound = "O[C@H]1[C@H](O)[C@@H](O)C2OC[C@H]1O2"
val = "0.963 (inactive)"

[[record]]
compound = "O=C1C=C(O)c2ccccc2C1=O"
val = "0.923 (inactive)"

[[record]]
compound = "CNC(=O)Oc1cccc2c1OC(C)(C)C2"
val = "1.01 (inactive)"

[[record]]
compound = "CON"
val = "0.995 (inactive)"

[[record]]
compound = "O=C(Nc1ccc([N+](=O)[O-])cc1Cl)c1cc(Cl)ccc1O"
val = "0.964 (inactive)"


Sample O=C1c2ccccc2C(=O)c2ccccc21 — what was its normalized growth?
0.974 (inactive)

And the next one, CC(C)=CCC/C(C)=C/CO ?
0.966 (inactive)

And the next one, OC[C@H]1O[C@@H](Oc2ccc(O)cc2)[C@H](O)[C@@H](O)[C@@H]1O ?
1.03 (inactive)

====

ASSAY_PROTOCOL: chemical genetic growth profiling, strain panel (AID 1159580);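 further: tested at 20 µM; growth read once vehicle control cultures reached saturation at 30 °C; 1 = growth at the plate median or of vehicle wells; lower values mean less growth of the strain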
RUN_CONDITIONS: S. cerevisiae deletion strains, growth OD, locus YDL192W, strain arf1, stronger effect = lower value
Out of some 5,500 compounds screened, about 2,000 (36%) were called active. Not shown: some 18% with an inconclusive outcome. The list shows a part of the results.
List of normalized growth values.
Give a plain numeric answer without units written out.

[[record]]
compound = "CN1C(=O)CC[C@H]1c1cccnc1"
val = 1.01

[[record]]
compound = "CC(=O)NS(=O)(=O)c1ccc(N)cc1"
val = 0.971

[[record]]
compound = "O=C(Nc1ccc([N+](=O)[O-])cc1Cl)c1cc(Cl)ccc1O"
val = 1.01

[[record]]
compound = "CC(C)[C@@H]1CC[C@@H](C)CC1=O"
val = 1.02


Sample O=C(O)CCC(=O)OC[C@@H](NC(=O)C(Cl)Cl)[C@H](O)c1ccc([N+](=O)[O-])cc1 — what was its normalized growth?
0.979

And the next one, CN1CCN(C2=Nc3cc(Cl)ccc3Nc3ccccc32)CC1 ?
1.02

And the next one, NS(=O)(=O)c1cc2c(cc1Cl)NCNS2(=O)=O ?
0.999

And the next one, CNC(=O)Oc1cccc2c1OC(C)(C)C2 ?
1

And the next one, Cc1ccc(O)c(C(CCN(C(C)C)C(C)C)c2ccccc2)c1 (stereo not drawn) ?
1

And the next one, CC(C)OC(=O)Nc1cccc(Cl)c1 ?
0.995
